- methodDescription: plasma concentration after i.v. administration
- Assay type: in vivo, mice
- settings: mouse, iv, 10 mg/kg
reportedEndpoint: concentration at 1 h
Reply with a number, then the unit it belongs to.

Inquiry: Answer with the recorded concentration at 1 h of COc1ccc2c3c([nH]c2c1)[C@H](CC(C)C)N1C(=O)[C@H](CCC(=O)OC(C)(C)C)NC(=O)[C@@H]1C3 only.
Reply text: 12 nM
